target: phosphorylation levels of ERK1/2 in AsPC-1 (homozygous KRAS-G12D) cells (Homo sapiens, UniProt P01116, G12D); assay: Cellular phospho-ERK assay in AsPC-1 cells (Alpha Screen), assay medium without fetal bovine serum; details: phospho-ERK AlphaScreen, 18 h;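 note: signal taken as phospho-ERK over total ERK per well, both detected in one multiplex bead assay, EC50 from four-parameter logistic fit of dose-response curves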
Sequence (P01116 1-186 G12D): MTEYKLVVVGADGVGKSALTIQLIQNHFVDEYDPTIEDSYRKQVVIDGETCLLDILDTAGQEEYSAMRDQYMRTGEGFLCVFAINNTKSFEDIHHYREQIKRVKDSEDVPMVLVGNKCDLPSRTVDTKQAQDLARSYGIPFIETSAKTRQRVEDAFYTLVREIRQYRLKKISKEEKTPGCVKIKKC
*1 amine or outer side, *2 acyl side, *3 side chain or, on linkers, in order; H or OH if unused. Where a SMILES comes first, the peptide text is derived from it. Bridges are numbered along the chain shown (N, C = ends). [ ]: non-standard residue; d: D form. The star is where a group is joined. X48 = CCCC[C@@H](/C=C\[C@@H](Cc1cccnc1)C(=O)[*:2])N[*:1]; Phe(4-guanidino) = N=C(N)Nc1ccc(C[C@H](N)C(=O)O)cc1; Ala(pyrimidin-5-yl) = N[C@@H](Cc1cncnc1)C(=O)O; Gly(N-(CH2)3-guanidino) = N=C(N)NCCCNCC(=O)O; X6 = O=C([C@H](Cc1cnn(C2COC2)c1)N[*:1])[*:2]; X27 = Cc1ccc(C[C@H](N[*:1])C(=O)[*:2])cn1; X11 = CC(C)(F)CC[C@H](N[*:1])C(=O)[*:2]; NMeAha = CN[C@@H](CCN=[N+]=[N-])C(=O)O; Nle(5,5-F2) = CC(F)(F)CC[C@H](N)C(=O)O; Phe(2-F) = N[C@@H](Cc1ccccc1F)C(=O)O; NMe3Pal = CN[C@@H](Cc1cccnc1)C(=O)O; X1 = O=C(C12CC(CN[*:1])(C1)C2)[*:2]; Aha = [N-]=[N+]=NCC[C@H](N)C(=O)O; Ala(cPr) = N[C@@H](CC1CC1)C(=O)O; NMeF = CN[C@@H](Cc1ccccc1)C(=O)O; PhLac = O=C(O)[C@@H](O)Cc1ccccc1; 3Pal = N[C@@H](Cc1cccnc1)C(=O)O; Ahp(2) = CCCCC[C@H](N)C(=O)O; Cba = N[C@@H](CC1CCC1)C(=O)O; NMeNle = CCCC[C@H](NC)C(=O)O; αMeC = C[C@](N)(CS)C(=O)O; NMeA = CN[C@@H](C)C(=O)O; Nle = CCCC[C@H](N)C(=O)O; Pyrrolidide = C1CCN(*)C1
Under this convention, label 1 denotes EC50 strictly below 10 µM and label 0 denotes EC50 at or above 10 µM.

These recorded examples may help you get a feel for the data.
CCCCC[C@@H]1NC(=O)[C@H](Cc2ccc(OC)cc2)NC(=O)[C@H](CC2CCC2)NC(=O)[C@H](Cc2ccc(NC(=N)N)cc2)NC(=O)CN(CCCNC(=N)N)C(=O)[C@H](Cc2ccccc2)NC(=O)CSC[C@@](C)(C(N)=O)NC(=O)[C@H](Cc2ccccc2)N(C)C1=O [compound 361] ({CH2CO}-F[Gly(N-(CH2)3-guanidino)][Phe(4-guanidino)][Cba]Y(Me)[Ahp(2)][NMeF][αMeC]-NH2; thioether N-8): label 0
CON=C1C[C@@H](Cc2ccccc2)C(=O)N(C)[C@@H](C)C(=O)N[C@@H](Cc2cncnc2)C(=O)N[C@@H](CC2CC2)C(=O)N[C@@H](Cc2ccccc2F)C(=O)N[C@@H](CCC(C)(F)F)C(=O)N(C)[C@@H](Cc2ccccc2)C(=O)NCC23CC1(C2)C3 (single isomer, unassigned) [compound 178]: label 1
CCCC[C@@H]1NC(=O)[C@H](Cc2cccnc2)NC(=O)[C@H](CCN=[N+]=[N-])N(C)C(=O)[C@H](Cc2ccccc2)OC(=O)C23CC(CNC(=O)[C@H](Cc4cccnc4)N(C)C(=O)[C@H](CCCC)NC(=O)[C@H](Cc4ccccc4F)NC1=O)(C2)C3 [compound 249] (cyclo([3Pal][Nle][Phe(2-F)][Nle][NMe3Pal][X1][PhLac][NMeAha])): label 1
CCCC[C@@H]1NC(=O)[C@H](Cc2ccc(C(F)(F)F)nc2)NC(=O)[C@H](CCCn2ccnc2)N(C)C(=O)[C@H](Cc2ccccc2)OC(=O)C23CC(CNC(=O)[C@H](Cc4ccccc4)N(C)C(=O)[C@H](CCCC)NC(=O)[C@H](Cc4ccccc4F)NC1=O)(C2)C3 (single isomer, unassigned) [compound 219]: label 0
CCCC[C@@H]1NC(=O)[C@H](Cc2ccccc2F)NC(=O)[C@H](CCN=[N+]=[N-])NC(=O)[C@H](Cc2cccnc2)NC(=O)[C@H](CCCC)N(C)C(=O)[C@H](Cc2ccccc2)OC(=O)C23CC(CNC(=O)[C@H](Cc4cccnc4)N(C)C1=O)(C2)C3 [compound 243] (cyclo([3Pal][Aha][Phe(2-F)][Nle][NMe3Pal][X1][PhLac][NMeNle])): label 0

State whether 10 µM exceeds EC50 recorded for CCCC[C@@H]1NC(=O)[C@H](Cc2cccnc2)NC(=O)[C@H](C)N(C)C(=O)[C@H](Cc2ccc(C)nc2)NC(=O)C23CC(CNC(=O)[C@H](Cc4cccnc4)N(C)C(=O)[C@H](CCCC)NC(=O)[C@H](Cc4ccccc4F)NC1=O)(C2)C3 [compound 164] (cyclo([3Pal][Nle][Phe(2-F)][Nle][NMe3Pal][X1][X27][NMeA])) .
label 0

Input CCCCC[C@@H]1NC(=O)[C@H](CC(=O)N2CCCC2)NC(=O)[C@H](CC2CCC2)NC(=O)[C@H](Cc2cccnc2)NC(=O)[C@H](CCCNC(=N)N)NC(=O)[C@H](Cc2ccccc2)NC(=O)CSC[C@@](C)(C(N)=O)NC(=O)[C@H](Cc2ccccc2)N(C)C1=O [compound 373] ({CH2CO}-FR[3Pal][Cba]D(Pyrrolidide)[Ahp(2)][NMeF][αMeC]-NH2; thioether N-8)
label 0

Repeat for the following compound: CCCC[C@H]1/C=C\[C@@H](Cc2cccnc2)C(=O)NCC23CC(C2)(C3)C(=O)O[C@@H](Cc2ccccc2)C(=O)N(C)[C@@H](C)C(=O)N[C@@H](Cc2cncnc2)C(=O)N[C@@H](CCCC)C(=O)N[C@@H](Cc2ccccc2F)C(=O)N1 [SEQ ID NO: 137] (cyclo([NMeA][Ala(pyrimidin-5-yl)][Nle][Phe(2-F)][X48][X1][PhLac]))
label 0

Now consider C[C@H]1C(=O)N[C@@H](Cc2cncnc2)C(=O)N[C@@H](CC2CC2)C(=O)N[C@@H](Cc2ccccc2F)C(=O)N[C@@H](CCC(C)(F)F)C(=O)N(C)[C@@H](Cc2ccccc2)C(=O)NCC23CC(C2)(C3)C(=O)O[C@@H](Cc2ccccc2)C(=O)N1C [compound 276] (cyclo([Ala(cPr)][Phe(2-F)][Nle(5,5-F2)][NMeF][X1][PhLac][NMeA][Ala(pyrimidin-5-yl)])) .
label 1

Entry C[C@H]1C(=O)N[C@@H](Cc2cnn(C3COC3)c2)C(=O)N[C@@H](CC2CC2)C(=O)N[C@@H](Cc2ccccc2F)C(=O)N[C@@H](CCC(C)(F)F)C(=O)N(C)[C@@H](Cc2ccccc2)C(=O)NCC23CC(C2)(C3)C(=O)O[C@@H](Cc2ccccc2)C(=O)N1C [compound 291] (cyclo([Ala(cPr)][Phe(2-F)][Nle(5,5-F2)][NMeF][X1][PhLac][NMeA][X6])) please
label 1

Entry C[C@H]1C(=O)N[C@@H](Cc2cncnc2)C(=O)N[C@@H](CC2CCC2)C(=O)N[C@@H](Cc2ccccc2F)C(=O)N[C@@H](CCC(C)(C)F)C(=O)N(C)[C@@H](Cc2ccccc2)C(=O)NCC23CC(C2)(C3)C(=O)O[C@@H](Cc2ccccc2)C(=O)N1C [compound 225] (cyclo([Cba][Phe(2-F)][X11][NMeF][X1][PhLac][NMeA][Ala(pyrimidin-5-yl)])) please
label 1
